TARGET UNDER TEST: UniProt:P06814
Sequence (P06814 whole entry): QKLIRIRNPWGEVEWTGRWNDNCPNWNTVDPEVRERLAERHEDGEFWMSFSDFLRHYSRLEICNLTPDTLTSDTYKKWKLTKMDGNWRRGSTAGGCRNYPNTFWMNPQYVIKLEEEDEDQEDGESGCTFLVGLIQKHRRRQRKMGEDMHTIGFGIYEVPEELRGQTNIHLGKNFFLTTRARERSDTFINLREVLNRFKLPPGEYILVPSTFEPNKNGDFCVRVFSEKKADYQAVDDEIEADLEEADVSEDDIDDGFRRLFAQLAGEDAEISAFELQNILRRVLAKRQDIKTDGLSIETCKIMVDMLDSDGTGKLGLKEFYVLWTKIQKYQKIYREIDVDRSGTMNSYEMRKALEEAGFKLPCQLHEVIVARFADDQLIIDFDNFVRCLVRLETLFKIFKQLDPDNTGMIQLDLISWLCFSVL
Sequence (P06813 whole entry partner): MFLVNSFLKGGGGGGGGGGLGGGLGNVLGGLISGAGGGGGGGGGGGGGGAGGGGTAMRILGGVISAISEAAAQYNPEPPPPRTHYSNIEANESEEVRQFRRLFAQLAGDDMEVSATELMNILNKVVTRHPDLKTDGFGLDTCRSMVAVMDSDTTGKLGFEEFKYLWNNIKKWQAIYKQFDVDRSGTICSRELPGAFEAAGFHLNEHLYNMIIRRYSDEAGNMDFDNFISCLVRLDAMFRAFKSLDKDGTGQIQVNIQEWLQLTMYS
ASSAY PROTOCOL: Calpain II Ki (Table 1B(i))
Format: biochemical
MEASUREMENT SETUP: Suc-Leu-Tyr-amidomethylcoumarin, HEPES pH 7.2; read-out: Ki Calpain II
What pKi was measured for each of the following?
Notebook: values listed as pKi are -log10 of the concentration (mol/L).

Give me measured pKi, please, for this compound: CCCC(NC(=O)[C@H](CC(C)C)NC(=O)OCc1ccccc1)C(=O)C(=O)OCC (mixture of isomers) [Z-Leu-Nva-COOEt, Z-Leu-DL-Nva-COOEt]
5.92

Give me measured pKi, please, for this compound: CCOC(=O)C(=O)C(Cc1ccccc1)NC(=O)C(CC(C)C)NC(=O)OCc1ccccc1 (stereo not drawn) [Z-Leu-Phe-COOEt]
6.40

Give me measured pKi, please, for this compound: CCOC(=O)C(=O)C(CC)NC(=O)[C@H](C)NC(=O)[C@H](C)NC(=O)OCc1ccccc1 (mixture of isomers) [Z-Ala-Ala-DL-Abu-COOEt, Z-Ala-Ala-DL-Abu-CO2 Et]
3.70

Give me measured pKi, please, for this compound: CCCCC(NC(=O)C(CC(C)C)NC(=O)OCc1ccccc1)C(=O)C(=O)OCC (stereo not drawn) [Z-Leu-Nle-COOEt, Z-Leu-NLeu-CO2 Et]
6.74

Give me measured pKi, please, for this compound: CCOC(=O)C(=O)[C@H](CC)NC(=O)[C@H](CC(C)C)NC(=O)OCc1ccccc1 (racemic) [Z-Leu-Abu-COOEt, Z-Leu-DL-Abu-COOEt]
6.40

---

TARGET UNDER TEST: Cathepsin B (Bos taurus, UniProt P07688)
ASSAY PROTOCOL: Cathepsin B KI (Table 1B(ii))
Format: biochemical
MEASUREMENT SETUP: read-out: KI CathB
Source text: We tested the ability of an additional group of Peptide Keto-Compounds to inhibit several proteases in order to evaluate their specificity for Calpain.
What Ki was measured for each of the following?
Give a bare numeral; the unit µM is implied.

Give me measured Ki, please, for this molecule: CCOC(=O)C(=O)[C@H](CC)NC(=O)[C@H](CC(C)C)NC(=O)OCc1ccccc1 (racemic) [Z-Leu-Abu-COOEt, Z-Leu-DL-Abu-COOEt]
30

Give me measured Ki, please, for this molecule: CC(C)CNC(=O)C(=O)[C@H](Cc1ccccc1)NC(=O)[C@H](CC(C)C)NC(=O)OCc1ccccc1 [Z-Leu-Phe-CONHiBu, Z-Leu-Phe-CONH-iBu]
4

Give me measured Ki, please, for this molecule: CC(C)C[C@H](NC(=O)OCc1ccccc1)C(=O)N[C@@H](Cc1ccccc1)C(=O)C(=O)OCc1ccccc1 [Z-Leu-Phe-COOBz, Z-Leu-Phe-CO2 Bzl]
45

Give me measured Ki, please, for this molecule: CCCNC(=O)C(=O)C(Cc1ccccc1)NC(=O)C(CC(C)C)NC(=O)OCc1ccccc1 (stereo not drawn) [Z-Leu-Phe-CONHnPr, Z-Leu-Phe-CONH-nPr]
3

Give me measured Ki, please, for this molecule: CCCCNC(=O)C(=O)C(CC)NC(=O)C(CC(C)C)NC(=O)OCc1ccccc1 (stereo not drawn) [Z-Leu-Abu-CONHnBu, Z-Leu-Abu-CONH-nBu]
13

Give me measured Ki, please, for this molecule: CCCCNC(=O)C(=O)C(Cc1ccccc1)NC(=O)C(CC(C)C)NC(=O)OCc1ccccc1 (stereo not drawn) [Z-Leu-Phe-CONHnBu, Z-Leu-Phe-CONH-nBu]
3

Give me measured Ki, please, for this molecule: CCCCC(NC(=O)C(CC(C)C)NC(=O)OCc1ccccc1)C(=O)C(=O)OCC (stereo not drawn) [Z-Leu-Nle-COOEt, Z-Leu-NLeu-CO2 Et]
20

Give me measured Ki, please, for this molecule: CCOC(=O)C(=O)C(CC)NC(=O)C(CC(C)C)NC(=O)C(CC(C)C)NC(=O)OCc1ccccc1 (stereo not drawn) [Z-Leu-Leu-Abu-COOEt]
22

Give me measured Ki, please, for this molecule: CCOC(=O)C(=O)[C@H](Cc1ccccc1)NC(=O)[C@H](CC(C)C)NC(=O)[C@H](CC(C)C)NC(=O)OCc1ccccc1 [Z-Leu-Leu-Phe-COOEt]
42

Give me measured Ki, please, for this molecule: CCCCOC(=O)C(=O)[C@H](Cc1ccccc1)NC(=O)[C@H](CC(C)C)NC(=O)OCc1ccccc1 [Z-Leu-Phe-COOnBu, Z-Leu-Phe-CO2 Bu]
15

Give me measured Ki, please, for this molecule: CC[C@H](NC(=O)[C@H](CC(C)C)NC(=O)OCc1ccccc1)C(=O)C(=O)OCc1ccccc1 [Z-Leu-Abu-COOBz, Z-Leu-Abu-CO2 Bzl]
4

Give me measured Ki, please, for this molecule: CCNC(=O)C(=O)[C@H](Cc1ccccc1)NC(=O)[C@H](CC(C)C)NC(=O)OCc1ccccc1 [Z-Leu-Phe-CONHEt, Z-Leu-Phe-CONH-Et]
6

Give me measured Ki, please, for this molecule: CCOC(=O)C(=O)C(CC)NC(=O)C(CC(C)C)NC(=O)C(CC(C)C)NS(=O)(=O)c1ccc2ccccc2c1 (stereo not drawn) [2-NapSO2 -Leu-Leu-Abu-COOEt]
25

---

TARGET UNDER TEST: Chym (Bos taurus, UniProt P00766)
ASSAY PROTOCOL: Chym KI (Table 1B(ii))
Type: biochemical
ATTRIBUTE MEASURED: log10(Ki) (log10 of the value in nM)
// units: nM (pre-log); metric: Ki; scale: log10

Give me measured log10(Ki), please, for this molecule: "CCCCOC(=O)C(=O)[C@H](Cc1ccccc1)NC(=O)[C@H](CC(C)C)NC(=O)OCc1ccccc1"
2.18

Give me measured log10(Ki), please, for this molecule: "CCOC(=O)C(=O)[C@H](Cc1ccccc1)NC(=O)[C@H](CC(C)C)NC(=O)[C@H](CC(C)C)NC(=O)OCc1ccccc1"
2.41

Give me measured log10(Ki), please, for this molecule: "CCNC(=O)C(=O)[C@H](Cc1ccccc1)NC(=O)[C@H](CC(C)C)NC(=O)OCc1ccccc1"
4.86

Give me measured log10(Ki), please, for this molecule: CCOC(=O)C(=O)C(Cc1ccccc1)NC(=O)C(CC(C)C)NC(=O)OCc1ccccc1 (stereo not shown)
1.40

Give me measured log10(Ki), please, for this molecule: CCOC(=O)C(=O)C(Cc1ccc(Cl)cc1)NC(=O)C(CC(C)C)NC(=O)OCc1ccccc1 (stereo not shown)
2.95

Give me measured log10(Ki), please, for this molecule: CCCC(NC(=O)[C@H](CC(C)C)NC(=O)OCc1ccccc1)C(=O)C(=O)OCC (mixture of isomers)
5.20

---

TARGET UNDER TEST: UniProt P07384
Sequence (P07384 whole entry): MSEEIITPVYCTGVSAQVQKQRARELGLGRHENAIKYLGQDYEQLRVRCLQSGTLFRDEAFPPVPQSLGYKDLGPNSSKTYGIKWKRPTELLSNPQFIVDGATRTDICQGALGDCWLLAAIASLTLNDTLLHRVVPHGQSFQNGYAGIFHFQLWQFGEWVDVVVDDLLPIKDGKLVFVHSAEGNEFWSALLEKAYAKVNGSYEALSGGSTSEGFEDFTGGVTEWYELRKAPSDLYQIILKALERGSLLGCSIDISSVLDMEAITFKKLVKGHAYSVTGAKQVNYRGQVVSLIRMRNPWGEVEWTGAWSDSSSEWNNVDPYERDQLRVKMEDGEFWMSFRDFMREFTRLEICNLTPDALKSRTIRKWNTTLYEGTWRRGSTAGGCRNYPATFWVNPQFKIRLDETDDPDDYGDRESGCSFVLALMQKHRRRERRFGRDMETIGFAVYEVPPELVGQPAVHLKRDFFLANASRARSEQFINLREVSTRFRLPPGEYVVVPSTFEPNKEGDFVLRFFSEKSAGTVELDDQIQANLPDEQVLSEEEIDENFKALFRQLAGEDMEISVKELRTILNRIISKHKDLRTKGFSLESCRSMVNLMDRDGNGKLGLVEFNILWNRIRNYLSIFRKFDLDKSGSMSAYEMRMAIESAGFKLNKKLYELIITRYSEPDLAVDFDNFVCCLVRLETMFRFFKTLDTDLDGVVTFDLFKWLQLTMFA
Sequence (P04632 whole entry partner): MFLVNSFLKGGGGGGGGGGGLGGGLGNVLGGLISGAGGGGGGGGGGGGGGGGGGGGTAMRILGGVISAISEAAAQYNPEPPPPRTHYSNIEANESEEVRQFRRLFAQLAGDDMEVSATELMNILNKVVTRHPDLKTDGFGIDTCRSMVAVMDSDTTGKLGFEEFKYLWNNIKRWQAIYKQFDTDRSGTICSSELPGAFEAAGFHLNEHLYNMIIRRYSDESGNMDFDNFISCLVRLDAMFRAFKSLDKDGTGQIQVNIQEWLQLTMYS
ASSAY PROTOCOL: Calpain I 14C-methylated casein proteolysis (Table 1A)
Type: biochemical
Excerpt: The isocoumarins are irreversible inhibitors of Calpain. We obtained IC50 values for a variety of these Calpain Inhibitors as a kinetic analysis of these compounds. Calpains I and II were purified by the method of (Yoshimura, et al. 1983). (Kitahara 1984) provides an alternative purification scheme. […]
pIC50: −log10 of the molar value.
Hi, to clarify the labels: TRUE covers pIC50 from 4 upward, FALSE covers anything below 4.

Evaluate N=C(N)SCCOc1oc(=O)c2cc(NC(=O)Cc3ccccc3)ccc2c1Cl [PhCH2 CONH-CiTEtOIC] : pIC50 at minimum 4?
TRUE

Evaluate CC(=O)Nc1ccc2c(Cl)c(OCCCSC(=N)N)oc(=O)c2c1 [CH3 CONH-CiTPrOIC] : pIC50 at minimum 4?
FALSE

Evaluate N=C(N)SCCCOc1oc(=O)c2cc(N)ccc2c1Cl [NH2 -CiTPrOIC (ACITIC)] : pIC50 at minimum 4?
TRUE

---

What t1/2 plasma was measured for each of the following?
ASSAY PROTOCOL: Stability in plasma
Assay type: in vitro ADME
MEASUREMENT SETUP: unit assumed

Give me measured t1/2 plasma, please, for this compound: CC(C)CC(NC(=O)OCc1ccccc1)C(=O)NC(Cc1ccccc1)C(=O)C(=O)O (stereo not shown)
> 60 min

Give me measured t1/2 plasma, please, for this compound: CCOC(=O)C(=O)[C@H](CC)NC(=O)[C@H](CC(C)C)NC(=O)OCc1ccccc1 (racemic)
2.8 min

Give me measured t1/2 plasma, please, for this compound: "CC(C)CNC(=O)C(=O)[C@H](Cc1ccccc1)NC(=O)[C@H](CC(C)C)NC(=O)OCc1ccccc1"
> 60 min

Give me measured t1/2 plasma, please, for this compound: CCOC(=O)C(=O)C(Cc1ccccc1)NC(=O)C(CC(C)C)NC(=O)OCc1ccccc1 (stereo not shown)
7.8 min

Give me measured t1/2 plasma, please, for this compound: CCCCC(NC(=O)C(CC(C)C)NC(=O)OCc1ccccc1)C(=O)C(=O)OCC (stereo not shown)
3.7 min

Give me measured t1/2 plasma, please, for this compound: CCC(NC(=O)C(CC(C)C)NC(=O)OCc1ccccc1)C(=O)C(=O)NCC(C)C (stereo not shown)
> 60 min

Give me measured t1/2 plasma, please, for this compound: "CCOC(=O)C(=O)[C@H](CC)NC(=O)[C@H](CC(C)C)NC(=O)[C@H](CC(C)C)NC(=O)c1ccc2ccccc2c1"
25 min

Give me measured t1/2 plasma, please, for this compound: CCOC(=O)C(=O)C(CC)NC(=O)C(CC(C)C)NC(=O)C(CC(C)C)NS(=O)(=O)c1ccc2ccccc2c1 (stereo not shown)
> 60 min

Give me measured t1/2 plasma, please, for this compound: CCCC(NC(=O)[C@H](CC(C)C)NC(=O)OCc1ccccc1)C(=O)C(=O)OCC (mixture of isomers)
2.8 min

Give me measured t1/2 plasma, please, for this compound: CCCCNC(=O)C(=O)C(Cc1ccccc1)NC(=O)C(CC(C)C)NC(=O)OCc1ccccc1 (stereo not shown)
> 60 min

Give me measured t1/2 plasma, please, for this compound: CCC(NC(=O)C(CC(C)C)NC(=O)OCc1ccccc1)C(=O)C(=O)NCc1ccccc1 (stereo not shown)
> 60 min

Give me measured t1/2 plasma, please, for this compound: CCCNC(=O)C(=O)C(Cc1ccccc1)NC(=O)C(CC(C)C)NC(=O)OCc1ccccc1 (stereo not shown)
> 60 min

Give me measured t1/2 plasma, please, for this compound: CCCCNC(=O)C(=O)C(CC)NC(=O)C(CC(C)C)NC(=O)OCc1ccccc1 (stereo not shown)
> 60 min
